# tgt: D(2) dopamine receptor (Rattus norvegicus)
# Sequence (P61169 whole entry): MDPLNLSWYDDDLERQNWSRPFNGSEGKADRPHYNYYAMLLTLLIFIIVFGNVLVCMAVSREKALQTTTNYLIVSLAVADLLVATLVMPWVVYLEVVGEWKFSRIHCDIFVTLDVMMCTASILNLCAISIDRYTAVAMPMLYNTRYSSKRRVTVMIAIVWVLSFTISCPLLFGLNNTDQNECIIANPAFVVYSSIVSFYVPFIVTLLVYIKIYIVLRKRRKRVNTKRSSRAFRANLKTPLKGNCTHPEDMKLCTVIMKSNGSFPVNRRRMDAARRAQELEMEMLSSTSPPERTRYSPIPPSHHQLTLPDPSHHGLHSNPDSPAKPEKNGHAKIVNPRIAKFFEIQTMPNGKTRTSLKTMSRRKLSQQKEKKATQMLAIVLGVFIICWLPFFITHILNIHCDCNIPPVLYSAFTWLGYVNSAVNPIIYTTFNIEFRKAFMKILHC
# assay-overview: In vitro high binding affinity towards Dopamine receptor D2 by the displacement of [3H]quinpirole radioligand in rat striatal membranes
# Format: cell membranes, Membrane
Ki listing for selected compounds.
experimental-readout: Ki (nM)

[
  {
    "structure-smiles-string": "O=C1Cc2c(OCCNCc3ccccc3)ccc(F)c2N1",
    "u": "nM",
    "measured-result": 0.63
  },
  {
    "structure-smiles-string": "O=C1Cc2c(OCCNCc3ccc(-c4ccccc4)cc3)ccc(F)c2N1",
    "u": "nM",
    "measured-result": 4.8
  },
  {
    "structure-smiles-string": "O=C1Cc2c(OCCNCc3ccsc3)ccc(Cl)c2N1",
    "u": "nM",
    "measured-result": 0.24
  },
  {
    "structure-smiles-string": "O=C1Cc2c(OCCNCc3ccc(F)cc3)ccc(Cl)c2N1",
    "u": "nM",
    "measured-result": 1.3
  },
  {
    "structure-smiles-string": "CCCCNCCOc1ccc(Cl)c2c1CC(=O)N2",
    "u": "nM",
    "measured-result": 0.84
  },
  {
    "structure-smiles-string": "O=C1Cc2c(OCCNCCCc3c[nH]c4ccccc34)ccc(F)c2N1",
    "u": "nM",
    "measured-result": 0.15
  }
]
